Data origin: patent US20240262801A1

pIC50: −log10 of the molar value. Where a name gives a salt, the structure may show the parent alone.
Entries with their measured pIC50, system GST-tagged PTPN2 protein (Homo sapiens, UniProt P17706):

Exercise: Report measured pIC50 on GST-tagged PTPN2 protein (Homo sapiens, UniProt P17706); entry: `O=C1CN(c2c(O)cc(NC(=O)NC3CCN(S(=O)(=O)Cc4ccccc4Cl)CC3)cc2F)S(=O)(=O)N1`
Sequence (P17706 with tags, fused parts or gaps): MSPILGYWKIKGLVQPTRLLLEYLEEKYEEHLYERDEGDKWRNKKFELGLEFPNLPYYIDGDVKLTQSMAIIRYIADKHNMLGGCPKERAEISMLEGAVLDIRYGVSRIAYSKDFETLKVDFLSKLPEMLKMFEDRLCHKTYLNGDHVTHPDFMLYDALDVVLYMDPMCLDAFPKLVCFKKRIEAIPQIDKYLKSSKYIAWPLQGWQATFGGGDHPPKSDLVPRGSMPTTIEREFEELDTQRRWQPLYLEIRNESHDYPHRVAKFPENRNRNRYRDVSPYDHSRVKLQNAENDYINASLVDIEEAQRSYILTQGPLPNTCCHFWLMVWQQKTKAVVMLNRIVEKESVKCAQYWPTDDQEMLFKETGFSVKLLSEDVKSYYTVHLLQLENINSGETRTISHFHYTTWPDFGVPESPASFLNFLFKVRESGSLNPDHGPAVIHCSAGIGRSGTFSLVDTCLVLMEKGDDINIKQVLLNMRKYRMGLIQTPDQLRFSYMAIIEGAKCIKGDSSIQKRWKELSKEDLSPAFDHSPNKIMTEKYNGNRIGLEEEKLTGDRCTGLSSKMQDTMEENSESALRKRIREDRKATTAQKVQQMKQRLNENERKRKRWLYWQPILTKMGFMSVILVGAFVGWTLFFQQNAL
Key: 8.00 to 8.30

Exercise: # assay system GST-tagged PTPN2 protein (Homo sapiens, UniProt P17706): give pIC50 of `O=C1CN(c2c(O)cc(NC(=O)Nc3ccccc3C(F)(F)F)cc2F)S(=O)(=O)N1`
Key: 8.00 to 8.30

Exercise: Find pIC50 for O=C1CN(c2c(O)cc(NC(=O)Nc3ccc(N4CCNCC4)cc3)cc2F)S(=O)(=O)N1 [Example 67, hydrochloride] on GST-tagged PTPN2 protein (Homo sapiens, UniProt P17706) and write it down.
Key: > 8.30

Exercise: // fetch pIC50 for `COCCCNC(=O)Nc1cc(O)c(N2CC(=O)NS2(=O)=O)c(F)c1` ; system: GST-tagged PTPN2 protein (Homo sapiens, UniProt P17706)
Key: 7.30 to 8.00

###

pIC50: −log10 of the molar value.
Heads up, these compounds all have pIC50 values measured for GST-tagged PTPN2 protein (Homo sapiens).

Exercise: Send back GST-tagged PTPN2 protein (Homo sapiens) pIC50 of O=C1CN(c2c(O)cc(NC(=O)Nc3ccc(OC(F)(F)F)cc3)cc2F)S(=O)(=O)N1 [Example 71] only.
Key: > 8.30

###

- Target System: GST-tagged PTPN2 protein (Homo sapiens)
- Construct: purchased ActiveMotif 31592
- Protocol Notes: Primary assay of PTPN2 enzymatic activity inhibition (DiFMUP fluorescence)
- Assay type: biochemical
- Assay Conditions: DiFMUP substrate 2 μM, 60 min at RT
pIC50: −log10 of the molar value.
Measurement Name: pIC50

Here is how some compounds turned out for pIC50.
O=C1CN(c2c(O)cc(NC(=O)Nc3ccc(C(F)(F)F)cc3)cc2F)S(=O)(=O)N1 ... 8.00 to 8.30
COc1ccc(S(=O)(=O)Nc2cc(O)c(N3CC(=O)NS3(=O)=O)c(F)c2)cc1 ... 7.30 to 8.00
O=C1CN(c2c(O)cc(NC(=O)Nc3ccc(Cl)cc3)cc2F)S(=O)(=O)N1 ... > 8.30
O=C1CN(c2c(O)cc(NS(=O)(=O)c3ccccc3F)cc2F)S(=O)(=O)N1 ... 6.30 to 7.00

Now consider a different compound.
Exercise: Output measured pIC50 for this item: `O=C1CN(c2c(O)cc(NC(=O)Nc3ccc(N4CCOCC4)cc3)cc2F)S(=O)(=O)N1`
Key: > 8.30

###

- Target System: GST-tagged PTPN2 protein (Homo sapiens, UniProt P17706)
Measurement Name: IC50

Some solved entries appear below for comparison.
CN(c1ccccc1)S(=O)(=O)Nc1cc(O)c(N2CC(=O)NS2(=O)=O)c(F)c1 [Example 31] ... 10 to 50 nM
O=C1CN(c2c(O)cc(NC(=O)Nc3cccc(F)c3)cc2F)S(=O)(=O)N1 [Example 54] ... < 5 nM
COc1ccc(C(=O)Nc2cc(O)c(N3CC(=O)NS3(=O)=O)c(F)c2)cc1 [Example 15] ... 100 to 500 nM
CC(C)CCNC(=O)Nc1cc(O)c(N2CC(=O)NS2(=O)=O)c(F)c1 [Example 62] ... 5 to 10 nM
Cc1cccc(S(=O)(=O)Nc2cc(O)c(N3CC(=O)NS3(=O)=O)c(F)c2)c1 [Example 22] ... 10 to 50 nM
COc1ccc(-c2cc(O)c(N3CC(=O)NS3(=O)=O)c(F)c2)cc1 [Example 3] ... 100 to 500 nM
O=C1CN(c2c(O)cc(NC(=O)N[C@@H]3c4ccccc4C[C@@H]3O)cc2F)S(=O)(=O)N1 [Example 108] ... 10 to 50 nM
CC(C)(C)c1ccc(C(=O)Nc2cc(O)c(N3CC(=O)NS3(=O)=O)c(F)c2)cc1 [Example 16] ... 100 to 500 nM

Exercise: Under GST-tagged PTPN2 protein (Homo sapiens, UniProt P17706): report IC50 of O=C1CN(c2c(O)cc(NC(=O)Nc3cccc(Cl)c3)cc2F)S(=O)(=O)N1 [Example 46] .
Key: < 5 nM

Exercise: With GST-tagged PTPN2 protein (Homo sapiens, UniProt P17706) as the test system, provide measured IC50 for this molecule: CC(C)C[C@@H](CO)NC(=O)Nc1cc(O)c(N2CC(=O)NS2(=O)=O)c(F)c1 [Example 110]
Key: 5 to 10 nM
